- Tested on: MCF7
- assay: Cytotoxicity against human MCF7 cells after 24 hrs by MTT assay
- Assay type: functional, cell-based
- recorded_conditions: MCF7, 24 h
pIC50: −log10 of the molar value.

{"record_smiles": "CCNc1cc(-c2ccc(NC(=O)Nc3ccc(OC)cc3)cc2C)ccn1", "experimental_target": "MCF7", "pIC50": 5.00}
{"record_smiles": "CCNc1cc(-c2ccc(NC(=O)Nc3ccc(C)cc3)cc2C(F)(F)F)ccn1", "experimental_target": "MCF7", "pIC50": 5.02}
{"record_smiles": "CCNc1cc(-c2ccc(NC(=O)Nc3cccc(Cl)c3)cc2C(F)(F)F)ccn1", "experimental_target": "MCF7", "pIC50": 5.91}
{"record_smiles": "CCNc1cc(-c2ccc(NC(=O)Nc3ccc(C(F)(F)F)cc3)cc2C)ccn1", "experimental_target": "MCF7", "pIC50": 5.16}
{"record_smiles": "CCNc1cc(-c2ccc(NC(=O)Nc3ccc(OC)cc3)cc2OC)ccn1", "experimental_target": "MCF7", "pIC50": 4.76}
{"record_smiles": "CCNc1cc(-c2ccc(NC(=O)Nc3cccc4ccccc34)cc2C)ccn1", "experimental_target": "MCF7", "pIC50": 4.81}
{"record_smiles": "CCNc1cc(-c2ccc(NC(=O)Nc3cccc(Cl)c3)cc2OC)ccn1", "experimental_target": "MCF7", "pIC50": 5.13}
{"record_smiles": "CCCNc1cc(-c2ccc(NC(=O)Nc3cccc(Cl)c3)cc2C(F)(F)F)ccn1", "experimental_target": "MCF7", "pIC50": 5.08}
{"record_smiles": "CCNc1cc(-c2ccc(NC(=O)Nc3ccc(C(F)(F)F)cc3)cc2OC)ccn1", "experimental_target": "MCF7", "pIC50": 4.71}
{"record_smiles": "CCNc1cc(-c2ccc(NC(=O)Nc3ccc(C(F)(F)F)cc3)cc2F)ccn1", "experimental_target": "MCF7", "pIC50": 5.10}
{"record_smiles": "CCNc1cc(-c2ccc(NC(=O)Nc3ccc(OC)cc3)cc2C(F)(F)F)ccn1", "experimental_target": "MCF7", "pIC50": 5.24}
{"record_smiles": "O=C(Nc1cccc(Cl)c1)Nc1ccc(-c2ccnc(NCC3CC3)c2)c(C(F)(F)F)c1", "experimental_target": "MCF7", "pIC50": 4.76}
{"record_smiles": "CCNc1cc(-c2ccc(NC(=O)Nc3ccc(C)cc3)cc2C)ccn1", "experimental_target": "MCF7", "pIC50": 5.04}

====

- experimental_target: Serine/threonine-protein kinase PLK1 (Homo sapiens, UniProt P53350)
- Sequence (P53350 whole entry): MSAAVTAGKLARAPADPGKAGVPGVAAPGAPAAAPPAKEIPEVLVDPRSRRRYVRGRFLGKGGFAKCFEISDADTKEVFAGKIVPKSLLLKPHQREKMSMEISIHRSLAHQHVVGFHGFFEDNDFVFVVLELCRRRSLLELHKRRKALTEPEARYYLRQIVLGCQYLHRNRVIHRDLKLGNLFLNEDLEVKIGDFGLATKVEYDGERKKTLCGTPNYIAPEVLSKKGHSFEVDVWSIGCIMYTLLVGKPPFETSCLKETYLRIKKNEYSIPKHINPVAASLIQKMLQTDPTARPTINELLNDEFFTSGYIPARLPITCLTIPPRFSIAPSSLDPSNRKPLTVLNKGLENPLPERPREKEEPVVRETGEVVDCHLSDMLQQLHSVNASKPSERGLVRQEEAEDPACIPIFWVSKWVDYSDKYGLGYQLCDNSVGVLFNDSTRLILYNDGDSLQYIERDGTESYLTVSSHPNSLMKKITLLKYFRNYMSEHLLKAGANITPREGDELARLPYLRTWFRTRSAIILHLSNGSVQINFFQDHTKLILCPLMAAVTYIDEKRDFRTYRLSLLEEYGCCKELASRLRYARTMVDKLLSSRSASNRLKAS
- assay: Inhibition of full length human PLK1 at 20 uM using casein as substrate after 40 mins in presence of [gamma-33P]-ATP by radiometric assay relative to control
Please use yes whenever inhibition is not below 50%, and no whenever it is.

{"record_smiles": "CCNc1cc(-c2ccc(NC(=O)Nc3ccc(OC)cc3)cc2C(F)(F)F)ccn1", "classification": "yes"}
{"record_smiles": "CCNc1cc(-c2ccc(NC(=O)Nc3ccc(C(F)(F)F)cc3)cc2C)ccn1", "classification": "yes"}
{"record_smiles": "CCNc1cc(-c2ccc(NC(=O)Nc3ccc(C(F)(F)F)cc3)cc2OC)ccn1", "classification": "no"}
{"record_smiles": "CCNc1cc(-c2ccc(NC(=O)Nc3c(C)cccc3C)cc2C(F)(F)F)ccn1", "classification": "yes"}
{"record_smiles": "CCNc1cc(-c2ccc(NC(=O)Nc3ccc(OC)cc3)cc2C)ccn1", "classification": "no"}
{"record_smiles": "CCNc1cc(-c2ccc(NC(=O)Nc3ccccc3Cl)cc2C(F)(F)F)ccn1", "classification": "yes"}
{"record_smiles": "CCNc1cc(-c2ccc(NC(=O)Nc3cccc4ccccc34)cc2C)ccn1", "classification": "no"}
{"record_smiles": "CCNc1cc(-c2ccc(NC(=O)Nc3c(C)cccc3C)cc2C)ccn1", "classification": "no"}
{"record_smiles": "CCNc1cc(-c2ccc(NC(=O)Nc3ccc(C(F)(F)F)cc3)cc2F)ccn1", "classification": "yes"}
